A collection of compounds and their measured viability, T/C
Test system: 945468-187-T-J2-PDC spheroids viability;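 further: spheroids exposed to compounds for seven days before reading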
test: Anticancer human tumor 945468-187-T-J2-PDC patient-derived rectal carcinoma cell line growth inhibition [PI3K]
protocolConditions: second compound 10 µM; first compound 0.00316 µM; stronger effect = lower value; spheroids with HUVEC and MSC
Description: Combinatorial screen of targeted agents with the PI3K inhibitors inavolisib, alpelisib, duvelisib, and copanlisib in multi-cell type tumor spheroids A high-throughput screen of multi-cell type tumor spheroids was designed to identify active combinations of targeted small molecules and PI3K pathway inhibitors. […] Compounds. […] If the clinical Cmax for an agent had not been determined, the highest concentration tested was 10 microM. […]

| compound | viability, T/C |
| --- | --- |
| Cn1ncnc1[C@H]1c2n[nH]c(=O)c3cc(F)cc(c23)N[C@@H]1c1ccc(F)cc1 + Cc1nc(NC(=O)N2CCCC2C(N)=O)sc1-c1ccnc(C(C)(C)C(F)(F)F)c1 | 88.6% |
| CC(=O)c1c(C)c2cnc(Nc3ccc(N4CCNCC4)cn3)nc2n(C2CCCC2)c1=O + Cc1nc(NC(=O)N2CCCC2C(N)=O)sc1-c1ccnc(C(C)(C)C(F)(F)F)c1 | 78% |
| Cn1ncnc1[C@H]1c2n[nH]c(=O)c3cc(F)cc(c23)N[C@@H]1c1ccc(F)cc1 + CC(Nc1ncnc2nc[nH]c12)c1cc2cccc(Cl)c2c(=O)n1-c1ccccc1 | 112% |
| CCN1CCN(Cc2ccc(Nc3ncc(F)c(-c4cc(F)c5nc(C)n(C(C)C)c5c4)n3)nc2)CC1 + Cc1nc(NC(=O)N2CCCC2C(N)=O)sc1-c1ccnc(C(C)(C)C(F)(F)F)c1 | 81.5% |
| CC(=O)c1c(C)c2cnc(Nc3ccc(N4CCNCC4)cn3)nc2n(C2CCCC2)c1=O + CC(Nc1ncnc2nc[nH]c12)c1cc2cccc(Cl)c2c(=O)n1-c1ccccc1 | 101% |
| CC(C)n1nc(-c2ccc3oc(N)nc3c2)c2c(N)ncnc21 + Cc1nc(NC(=O)N2CCCC2C(N)=O)sc1-c1ccnc(C(C)(C)C(F)(F)F)c1 | 66.9% |
| CCN1CCN(Cc2ccc(Nc3ncc(F)c(-c4cc(F)c5nc(C)n(C(C)C)c5c4)n3)nc2)CC1 + CC(Nc1ncnc2nc[nH]c12)c1cc2cccc(Cl)c2c(=O)n1-c1ccccc1 | 81.5% |
| CC(C)n1nc(-c2ccc3oc(N)nc3c2)c2c(N)ncnc21 + CC(Nc1ncnc2nc[nH]c12)c1cc2cccc(Cl)c2c(=O)n1-c1ccccc1 | 108% |
